# log10(IC50) annotations
# ASSAY_SYSTEM: p-Akt3 in WM115 cells (Homo sapiens, UniProt Q9Y243)
# Construct: SureFire assays to detect cellular p-Akt1, p-Akt2 and p-Akt3 levels in WM115 cells (Akt2/3) and LNCaP cells (Akt1); endogenous in cells; host or cells: WM115 (ECACC 91061232), insulin-stimulated
# Sequence (Q9Y243 whole entry): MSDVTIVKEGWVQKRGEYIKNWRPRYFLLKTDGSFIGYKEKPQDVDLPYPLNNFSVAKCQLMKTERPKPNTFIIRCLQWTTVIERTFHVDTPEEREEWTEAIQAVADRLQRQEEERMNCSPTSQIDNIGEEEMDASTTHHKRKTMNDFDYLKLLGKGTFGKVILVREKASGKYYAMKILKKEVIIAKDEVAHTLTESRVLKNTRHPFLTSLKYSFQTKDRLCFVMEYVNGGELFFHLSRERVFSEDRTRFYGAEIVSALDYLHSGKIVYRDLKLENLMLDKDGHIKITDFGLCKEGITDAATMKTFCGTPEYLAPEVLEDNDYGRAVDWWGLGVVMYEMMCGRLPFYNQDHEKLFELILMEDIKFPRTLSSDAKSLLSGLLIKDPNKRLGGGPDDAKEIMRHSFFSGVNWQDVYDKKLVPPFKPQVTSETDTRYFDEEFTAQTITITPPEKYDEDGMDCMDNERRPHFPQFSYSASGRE
# PROTOCOL_TEXT: Phospho-Akt cellular SureFire assay, p-Akt3 in WM115 cells
# Type: cell-based
# REPORTED_CONDITIONS: insulin stimulated, read-out: Biological Assay 2 IC50 (nM) Akt3 WM115
QUANTITY: log10(IC50) (log10 of the value in nM)

> print(dat)
                               query.smiles                              assay.system  numeric.readout
1  CCC(=O)N(C)[C@H]1CC[C@H](CC(=O)Nc2cc(-c3ccccc3)c(-c3ccc([C@]4(N)C[C@](C)(O)C4)cc3)nn2)CC1  p-Akt3 in WM115 cells (Homo sapiens, UniProt Q9Y243)             0.85
2  COC(=O)N(C)[C@H]1CC[C@H](CC(=O)Nc2cc(-c3ccccc3)c(-c3ccc([C@]4(N)C[C@H](F)C4)cc3)nn2)CC1  p-Akt3 in WM115 cells (Homo sapiens, UniProt Q9Y243)             2.83
3  NC1(c2ccc(-c3cnc(NC(=O)C[C@H]4CC[C@H](N5CCOC5=O)CC4)cc3-c3ccccc3F)cc2)CCC1  p-Akt3 in WM115 cells (Homo sapiens, UniProt Q9Y243)             1.57
4  CN([C@H]1CC[C@H](CC(=O)Nc2cnc(-c3ccc(C4(N)CCC4)cc3)c(-c3ccsc3)c2)CC1)S(C)(=O)=O  p-Akt3 in WM115 cells (Homo sapiens, UniProt Q9Y243)             2.15
5  COC(=O)N(C)[C@H]1CC[C@H](CC(=O)Nc2cc(-c3ccccc3)c(-c3ccc([C@]4(N)C[C@](C)(O)C4)cc3)nn2)CC1  p-Akt3 in WM115 cells (Homo sapiens, UniProt Q9Y243)             1.38
6  CC(=O)N(C)[C@H]1CC[C@H](CC(=O)Nc2cc(-c3ccccn3)c(-c3ccc(C4(N)CCC4)cc3)cn2)CC1  p-Akt3 in WM115 cells (Homo sapiens, UniProt Q9Y243)             2.15

----------
# ASSAY_SYSTEM: p-Akt2 in WM115 cells (Homo sapiens, UniProt P31751)
# Construct: SureFire assays to detect cellular p-Akt1, p-Akt2 and p-Akt3 levels in WM115 cells (Akt2/3) and LNCaP cells (Akt1); endogenous in cells; host or cells: WM115 (ECACC 91061232), insulin-stimulated
# Sequence (P31751 whole entry): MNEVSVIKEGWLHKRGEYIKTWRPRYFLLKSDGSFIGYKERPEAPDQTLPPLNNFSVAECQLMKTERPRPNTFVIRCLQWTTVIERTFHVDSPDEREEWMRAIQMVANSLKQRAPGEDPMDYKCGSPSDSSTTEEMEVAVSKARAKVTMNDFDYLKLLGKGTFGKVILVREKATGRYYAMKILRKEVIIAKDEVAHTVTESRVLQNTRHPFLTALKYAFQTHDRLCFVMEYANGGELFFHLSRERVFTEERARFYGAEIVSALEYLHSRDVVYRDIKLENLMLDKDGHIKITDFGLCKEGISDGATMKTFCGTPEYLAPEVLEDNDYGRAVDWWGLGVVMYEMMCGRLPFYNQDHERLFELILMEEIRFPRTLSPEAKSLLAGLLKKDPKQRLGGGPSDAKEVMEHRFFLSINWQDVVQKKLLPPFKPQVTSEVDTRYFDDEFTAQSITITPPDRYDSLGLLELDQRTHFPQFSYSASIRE
# PROTOCOL_TEXT: Phospho-Akt cellular SureFire assay, p-Akt2 in WM115 cells
# Format: cell-based
# REPORTED_CONDITIONS: insulin stimulated, read-out: Biological Assay 2 IC50 (nM) Akt2 WM115
QUANTITY: log10 of IC50 (log10 of the value in nM)

> print(dat)
                                    compound  numeric.readout
 1  CN(C(=O)C1CCC1)[C@H]1CC[C@H](CC(=O)Nc2cc(-c3ccccc3)c(-c3ccc([C@]4(N)C[C@](C)(O)C4)cc3)cn2)CC1 [Example A76]             3.08
 2  CCC(=O)N(C)[C@H]1CC[C@H](CC(=O)Nc2cnc(-c3ccc(C4(N)CC4)c(F)c3)c(-c3ccccc3)c2)CC1 [Example A89]             3.92
 3  CCC(=O)N(C)[C@H]1CC[C@H](CC(=O)Nc2cnc(-c3ccc([C@]4(N)C[C@](C)(O)C4)cc3)c(-c3ccccc3)c2)CC1 [Example 98]             2.67
 4  CC(C)(N)c1ccc(-c2ncc(NC(=O)C[C@H]3CC[C@H](NC(=O)C4CC4)CC3)cc2-c2ccccc2)cc1 [Example A20]             3.73
 5  CCC(=O)N(CC)[C@H]1CC[C@H](CC(=O)Nc2cc(-c3ccccc3)c(-c3ccc([C@]4(N)C[C@](C)(O)C4)cc3)cn2)CC1 [Example 115]             3.00
 6  CC(C)C(=O)N(C)[C@H]1CC[C@H](CC(=O)Nc2cc(-c3ccccc3)c(-c3ccc([C@]4(N)C[C@](C)(O)C4)cc3)nn2)CC1 [Example A79]             2.57
 7  CC(=O)N[C@H]1CC[C@H](CC(=O)Nc2cnc(-c3ccc(C4(N)CCC4)cc3)c(-c3ccsc3C)c2)CC1 [Example 18]             4.15
 8  CN([C@H]1CC[C@H](CC(=O)Nc2cnc(-c3ccc(C(C)(C)N)cc3)c(-c3ccsc3)c2)CC1)S(C)(=O)=O [Example A24]             3.95
 9  CCOC(=O)N(C)[C@H]1CC[C@H](CC(=O)Nc2cc(-c3ccccc3)c(-c3ccc([C@]4(N)C[C@](C)(O)C4)cc3)cn2)CC1 [Example A73]             3.08
10  CC(C)C(=O)N(C)[C@H]1CC[C@H](CC(=O)Nc2cc(-c3ccccc3)c(-c3ccc(C4(N)CC4)cc3)nn2)CC1 [Example A92]             3.34
11  CCOC(=O)N(C)[C@H]1CC[C@H](CC(=O)Nc2cc(-c3ccccc3)c(-c3ccc(C4(N)CC4)cc3)nn2)CC1 [Example A94]             3.78
12  CCC(=O)N(C)[C@H]1CC[C@H](CC(=O)Nc2cnc(-c3ccc(C4(N)CC4)c(F)c3)c(-c3ccccc3)c2)CC1 [Example 90]             3.81
13  CC(=O)N(C)[C@H]1CC[C@H](CC(=O)Nc2cnc(-c3ccc([C@]4(N)C[C@](C)(O)C4)cc3)c(-c3ccccc3)c2)CC1 [Example 1]             3.26
14  CCN(C(=O)C1CC1)[C@H]1CC[C@H](CC(=O)Nc2cc(-c3ccccc3)c(-c3ccc([C@]4(N)C[C@](C)(O)C4)cc3)nn2)CC1 [Example 114]             2.64
15  COC(=O)N(C)[C@H]1CC[C@H](CC(=O)Nc2cc(-c3ccsc3)c(-c3ccc([C@]4(N)C[C@](C)(O)C4)cc3)cn2)CC1 [Example 89]             3.48
16  COC(=O)N(C(C)C)[C@H]1CC[C@H](CC(=O)Nc2cc(-c3ccccc3)c(-c3ccc([C@]4(N)C[C@](C)(O)C4)cc3)nn2)CC1 [Example 101]             3.41
17  CCC(=O)N(C)[C@H]1CC[C@H](CC(=O)Nc2cc(-c3ccccc3)c(-c3ccc([C@]4(N)C[C@H](F)C4)cc3)nn2)CC1 [Example 123]             3.23
18  CCC(=O)N(C)[C@H]1CC[C@H](CC(=O)Nc2cc(-c3ccccc3F)c(-c3ccc([C@]4(N)C[C@](C)(O)C4)cc3)cn2)CC1 [Example 95]             2.82
19  CCOC(=O)N(C)[C@H]1CC[C@H](CC(=O)Nc2cc(-c3ccsc3)c(-c3ccc([C@]4(N)C[C@](C)(O)C4)cc3)cn2)CC1 [Example A90]             3.67
20  CN(C(=O)C1CC1)[C@H]1CC[C@H](CC(=O)Nc2cc(-c3ccccc3)c(-c3ccc([C@]4(N)C[C@](C)(O)C4)cc3)cn2)CC1 [Example A75]             2.51
21  CC(C)(N)c1ccc(-c2ncc(NC(=O)C[C@H]3CC[C@H](NC(=O)CC4CC4)CC3)cc2-c2ccccc2)cc1 [Example 29]             3.92
22  COC(=O)N(C)[C@H]1CC[C@H](CC(=O)Nc2cc(-c3ccccc3)c(-c3ccc(C4(N)CC(F)(F)C4)cc3)nn2)CC1 [Example 60]             3.94
23  CC(=O)N(C)[C@H]1CC[C@H](CC(=O)Nc2cc(-c3ccccc3)c(-c3ccc(C(C)(C)N)cc3)nn2)CC1 [Example 30]             3.83

Each recorded value in this set is attributed to patent US10336702B2.
